test system: K4 kissing-loop RNA reporter; test: apparent KD of K4 kissing-loop reporter; higher = weaker reporter binding; settings: Eterna round: R107; input ligand: none;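 also: bound reporter read as fluorescence of individual clusters on recovered sequencing chips by microscopy, with normalized cluster intensities fitted with a binding model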
Known apparent KD of K4 kissing-loop reporter of a selection of sequences
Kindly write the number and append the unit.

Example sequences with recorded apparent KD of K4 kissing-loop reporter:
>>> recorded_result("AUGCGCGCGGCGGCCGCCACUCGCAUGAGAGUGAUGUUCUCGCCGGGCCCGAAAGGGCCCGGUGUGAGGACCGGGCCGGGCUGCG [#2 Same State - Tryptophan B Attempt #15 (HarryS)]")
"145 nM"
>>> recorded_result("GGGUUUGACGGAGGAUAUGCACUGAGGAGGAGAAUAUAGUGAUGUUAUAUAAGAGGAAGGAGAAGAGUAGAAGGCCGUUGGGUUU [SSFMNB.L]")
"139 nM"
>>> recorded_result("UGAUACCAGACUGAUACCAGCUAGUGAUGUUAGCUGAAAUCAGGGUCAAAGACCCUGUCUGGCCCUUGGCAGCAGUCUGGUAUCU [TheoBX 18 #SwitchBubble #StaticStem]")
"76.2 nM"

**Query** What does the record list as apparent KD of K4 kissing-loop reporter for GUACGCUUCCGAGUGAUGUUCGGAAAUCGCUAGGAUAUCGCUUUUGCGAGAAGGAGCGCAAUGAGGAAACUCGUUGUUAGUGUAC [FMN A 27] ?
**Result** 177 nM

**Query** What does the record list as apparent KD of K4 kissing-loop reporter for UGUCAUUGGUCGGCCGCCACUAGACGGAUCAUAAGAUCUGUCAAUAAGAGUGAUGUUCUAAAUAAUAGGACCGGGACCGAUGACU [TrypBS 27 #SwitchBubble #StaticStem] ?
**Result** 907 nM

**Query** What does the record list as apparent KD of K4 kissing-loop reporter for AAACAUCACUGGGAGUGAUGUUCUCAGUGACGAGGACCGGUACGGCCGCCACUCGCGAGAGAUCUAGUCUAGUCUUGACUGCAUU [Excl Tryptophan A V13] ?
**Result** 292 nM
